- Test system: U-87 MG
- assay.summary: Growth inhibition of human U87MG cells after 72 hrs by Cell-Titer Glo assay
- Format: functional, U-87MG ATCC
Catalogue of molecules with associated GI50

| molecule | GI50 (nM) |
| --- | --- |
| CC[C@H](C)[C@H]1C(=O)N2CCC[C@H]2C(=O)O[C@H](C(C)(C)C)C[C@@H](C)C[C@H](O)[C@H](C)C2=N[C@@H](/C=C(\C)C(=O)N[C@@H](Cc3ccc(OC)cc3)C(=O)N(C)[C@@H](C)C(=O)N1C)CS2 [APRATOXIN A] | 18 |
| CC[C@H](C)[C@H]1C(=O)N2CCC[C@H]2C(=O)O[C@H](C(C)(C)C)C[C@@H](C)C[C@H](O)[C@H](C)C(=O)N2CCC(CC2)C(=O)N[C@@H](Cc2ccc(-c3ccccc3)cc2)C(=O)N(C)[C@@H](C)C(=O)N1C | 12 |
| CC[C@H](C)[C@H]1C(=O)N2CCC[C@H]2C(=O)O[C@H](C(C)(C)C)C[C@@H](C)C[C@H](O)[C@H](C)C(=O)N2CCC(CC2)C(=O)N[C@@H](Cc2ccc(Cl)cc2)C(=O)N(C)[C@@H](C)C(=O)N1C | 320 |
| CO[C@@]12[C@H](COC(N)=O)C3=C(C(=O)C(C)=C(N)C3=O)N1C[C@@H]1N[C@@H]12 [MITOMYCIN] | 1800 |

The reported measurements were obtained from ChEMBL document CHEMBL4011655.
